Attribution: patent US11498928B2

- Method: Pharmacokinetic studies in mice (IV and PO)
- Assay type: in vivo
- Measurement context: mouse, plasma, IV 2 mg/kg
Property label: AUC(0-t) (ng·h/mL)

a. CO[C@H]1C2=CC(C2)[C@H](C)[C@@H](C)S(=O)(=O)NC(=O)c2ccc3c(c2)N(C[C@@H]2CC[C@H]21)C[C@@]1(CCCc2cc(Cl)cc(F)c21)CO3 (single isomer, unassigned) [20 (isomer 1)]
b. COCCO[C@H]1C2=CC(C2)[C@H](C)[C@@H](C)S(=O)(=O)NC(=O)c2ccc3c(c2)N(C[C@@H]2CC[C@H]21)C[C@@]1(CCCc2cc(Cl)ccc21)CO3 (mixture of isomers) [16 (mixture)]
input: // pick larger AUC(0-t) from pair: a vs b Answer by quoting the chosen item's label.
output: a
(a: 7350 ng·h/mL, b: 2380 ng·h/mL)

----------
- Method: Pharmacokinetic studies in mice (IV and PO)
- Format: in vivo
- Measurement context: mouse, plasma, PO 10 mg/kg
Property label: Tmax (h)

1. CO[C@H]1C2=C[C@@H](C2)[C@H](C)[C@@H](C)S(=O)(=O)NC(=O)c2ccc3c(c2)N(C[C@@H]2CC[C@H]21)C[C@@]1(CCCc2c1ccc(Cl)c2F)CO3 (single isomer, unassigned) [Cpd. No. 17 (isomer 1)]
4
2. CO[C@H]1C2=CC(C2)[C@H](C)CS(=O)(=O)NC(=O)c2ccc3c(c2)N(C[C@@H]2CC[C@H]21)C[C@@]1(CCCc2cc(Cl)ccc21)CO3 (single isomer, unassigned) [Cpd. No. 14 (Isomer 1)]
2
3. COCCO[C@H]1C2=CC(C2)[C@H](C)[C@@H](C)S(=O)(=O)NC(=O)c2ccc3c(c2)N(C[C@@H]2CC[C@H]21)C[C@@]1(CCCc2cc(Cl)ccc21)CO3 (mixture of isomers) [16 (mixture)]
2
4. CO[C@H]1C2=CC(C2)[C@H](C)[C@@H](C)S(=O)(=O)NC(=O)c2ccc3c(c2)N(C[C@@H]2CC[C@H]21)C[C@@]1(CCCc2cc(Cl)c(F)cc21)CO3 (single isomer, unassigned) [Cpd. No. 21 (isomer 1)]
2

----------
- Method: Pharmacokinetic studies in mice (IV and PO)
- Type: in vivo
- Measurement context: mouse, plasma, IV 2 mg/kg, read-out: C0/Cmax (C0)
Property label: Cmax (ng/mL)

1) CO[C@H]1C2=C[C@@H](C2)[C@H](C)[C@@H](C)S(=O)(=O)NC(=O)c2ccc3c(c2)N(C[C@@H]2CC[C@H]21)C[C@@]1(CCCc2c1ccc(Cl)c2F)CO3 (single isomer, unassigned) [Cpd. No. 17 (isomer 1)]
997

P. CO[C@H]1C2=CC(C2)[C@H](C)[C@@H](C)S(=O)(=O)NC(=O)c2ccc3c(c2)N(C[C@@H]2CC[C@H]21)C[C@@]1(CCCc2cc(Cl)cc(F)c21)CO3 (single isomer, unassigned) [20 (isomer 1)]
Q. CO[C@H]1C2=CC(C)(C2)[C@H](C)CS(=O)(=O)NC(=O)c2ccc3c(c2)N(C[C@@H]2CC[C@H]21)C[C@@]1(CCCc2cc(Cl)ccc21)CO3 (mixture of isomers) [13 (mixture)]
R. CO[C@H]1C2=CC(C2)[C@H](C)CS(=O)(=O)NC(=O)c2ccc3c(c2)N(C[C@@H]2CC[C@H]21)C[C@@]1(CCCc2cc(Cl)ccc21)CO3 (single isomer, unassigned) [Cpd. No. 14 (Isomer 1)]
input: Highest Cmax first, then in falling order down to the smallest. API: response body holds the labels in the requested order.
output: P, R, Q
(P: 6090 ng/mL, R: 1510 ng/mL, Q: 861 ng/mL)
